Catalogue of Potency values
target or test system: Glucocorticoid receptor (Homo sapiens) (UniProt P04150)
Sequence (P04150 whole entry, looked up): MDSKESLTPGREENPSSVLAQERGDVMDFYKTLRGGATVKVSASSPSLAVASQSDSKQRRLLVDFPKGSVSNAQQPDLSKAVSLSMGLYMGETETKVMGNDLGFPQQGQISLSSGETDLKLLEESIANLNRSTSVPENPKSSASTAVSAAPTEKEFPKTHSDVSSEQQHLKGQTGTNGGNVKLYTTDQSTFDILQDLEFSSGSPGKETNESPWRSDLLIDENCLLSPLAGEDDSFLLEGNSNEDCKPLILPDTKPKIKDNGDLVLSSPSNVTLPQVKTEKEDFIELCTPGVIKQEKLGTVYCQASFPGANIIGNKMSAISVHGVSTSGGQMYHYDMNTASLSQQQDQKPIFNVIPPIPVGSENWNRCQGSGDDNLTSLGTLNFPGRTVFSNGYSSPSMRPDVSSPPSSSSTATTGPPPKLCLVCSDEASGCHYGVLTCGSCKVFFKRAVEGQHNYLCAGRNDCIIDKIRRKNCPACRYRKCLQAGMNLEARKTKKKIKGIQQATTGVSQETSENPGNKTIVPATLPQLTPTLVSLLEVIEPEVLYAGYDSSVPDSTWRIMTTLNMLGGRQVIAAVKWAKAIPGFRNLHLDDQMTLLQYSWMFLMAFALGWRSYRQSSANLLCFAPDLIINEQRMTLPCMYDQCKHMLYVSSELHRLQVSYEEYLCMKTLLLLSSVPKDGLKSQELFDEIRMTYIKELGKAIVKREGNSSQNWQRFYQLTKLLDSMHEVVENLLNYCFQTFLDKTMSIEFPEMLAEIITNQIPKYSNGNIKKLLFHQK
experiment: GR-EFC Redistribution (AID 451); further: potency means the concentration at half of the fitted maximal effect
test parameters: CHO-K1 GR-EFC translocation, beta-gal luminescence, 2 h
Activity calls are given as the source filed them. The call rests on the fitted dose curve.
readout label: Potency

[[record]]
structure_string = "CN(C)c1ncc2nc(CCc3ccccc3)c(=O)n(Cc3cccs3)c2n1"
readout_label = "Potency"
observed_measurement = "> 46 µM (inactive)"

[[record]]
structure_string = "FC(F)(F)c1ccccc1-c1nc(NCc2cccnc2)c2ccccc2n1"
readout_label = "Potency"
observed_measurement = "> 46 µM (inactive)"

[[record]]
structure_string = "COCCn1c(=O)c(-c2cc(F)cc(F)c2)nc2cnc(N3CCN(C)CC3)nc21"
readout_label = "Potency"
observed_measurement = "> 46 µM (inactive)"

[[record]]
structure_string = "N=C(N)c1ccc(N=Nc2c(O)ccc3c2[nH]c2ccccc23)cc1"
readout_label = "Potency"
observed_measurement = "> 9.22 µM (inactive)"

[[record]]
structure_string = "CCNc1ncc2nc(CCc3ccccc3)c(=O)n(Cc3cccc(OC)c3)c2n1"
readout_label = "Potency"
observed_measurement = "> 46 µM (inactive)"

[[record]]
structure_string = "N#Cc1c(-c2ccccc2)no[n+]1[O-]"
readout_label = "Potency"
observed_measurement = "> 46 µM (inactive)"

[[record]]
structure_string = "CN(C)Cc1ccccc1-c1ccc2ncnc(N(C)C)c2c1"
readout_label = "Potency"
observed_measurement = "> 46 µM (inactive)"

[[record]]
structure_string = "CN1CCN(c2nc(-c3ccoc3)nc3ccccc23)CC1"
readout_label = "Potency"
observed_measurement = "> 46 µM (inactive)"

[[record]]
structure_string = "CN(Cc1ccco1)c1ncnc2ccc(-c3cccc(NS(C)(=O)=O)c3)cc12"
readout_label = "Potency"
observed_measurement = "> 46 µM (inactive)"

[[record]]
structure_string = "O=c1cc(-c2cccc(O)c2)oc2c(O)c(O)ccc12"
readout_label = "Potency"
observed_measurement = "> 46 µM (inactive)"

[[record]]
structure_string = "COCCn1c(=O)c(CCc2ccccc2)nc2cnc(N(C)C)nc21"
readout_label = "Potency"
observed_measurement = "> 46 µM (inactive)"


###

target or test system: Rap guanine nucleotide exchange factor 3 (Homo sapiens) (UniProt O95398)
Sequence (O95398 whole entry, looked up): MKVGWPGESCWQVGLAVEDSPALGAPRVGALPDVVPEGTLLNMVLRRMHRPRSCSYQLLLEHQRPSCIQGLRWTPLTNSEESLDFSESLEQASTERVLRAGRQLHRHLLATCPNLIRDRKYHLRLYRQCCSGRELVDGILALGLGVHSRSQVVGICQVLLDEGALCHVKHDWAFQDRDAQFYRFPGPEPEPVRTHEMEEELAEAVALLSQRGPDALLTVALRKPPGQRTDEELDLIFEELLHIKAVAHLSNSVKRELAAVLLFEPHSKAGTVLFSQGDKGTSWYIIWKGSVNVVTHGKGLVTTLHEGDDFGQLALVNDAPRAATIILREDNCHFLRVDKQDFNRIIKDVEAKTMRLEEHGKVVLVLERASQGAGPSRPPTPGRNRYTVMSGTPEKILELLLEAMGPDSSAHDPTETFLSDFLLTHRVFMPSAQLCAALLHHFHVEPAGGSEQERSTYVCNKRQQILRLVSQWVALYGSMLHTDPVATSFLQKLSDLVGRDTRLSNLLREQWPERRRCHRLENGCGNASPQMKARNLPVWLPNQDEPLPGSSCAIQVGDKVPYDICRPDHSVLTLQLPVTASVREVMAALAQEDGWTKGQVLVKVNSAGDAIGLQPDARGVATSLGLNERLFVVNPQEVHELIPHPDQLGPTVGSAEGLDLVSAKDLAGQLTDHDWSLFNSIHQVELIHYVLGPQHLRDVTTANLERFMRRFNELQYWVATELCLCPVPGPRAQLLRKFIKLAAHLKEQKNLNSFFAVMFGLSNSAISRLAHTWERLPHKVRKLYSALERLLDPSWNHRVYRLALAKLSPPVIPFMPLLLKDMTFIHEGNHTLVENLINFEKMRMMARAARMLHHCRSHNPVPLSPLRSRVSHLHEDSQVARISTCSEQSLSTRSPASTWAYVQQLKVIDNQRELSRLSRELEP
experiment: Counterscreen qHTS for antagonist of cAMP-regulated guanine nucleotide exchange factor 3 (EPAC1) (AID 1645888);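 further: fluorescence loss as bound BODIPY-GDP is released from Rap1B; % of control where 0% means no effect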
test parameters: Rap1B-BODIPY-GDP nucleotide exchange, fluorescence; series mostly up to 154 µM
Description: Assay Provider (PI): Xiaodong Cheng Ph.D. The University of Texas Medical Branch, […], TX MLPCN Grant: NS066510 In multi-cellular eukaryotic organisms, the effects of cAMP are transduced by two ubiquitously-expressed intracellular cAMP receptors, the classic protein kinase A/cAMP-dependent protein kinase (PKA/cAPK) and the more recently discovered exchange protein directly activated by cAMP/cAMP-regulated guanine nucleotide exchange factor (EPAC/cAMP-GEF). […]
Records with an inconclusive call do not appear. Calls of active or inactive are those of the source. Calls come from the whole dose curve; as a rule, active = well fitted inhibition curve with a large enough effect; inconclusive = small, poorly fitted or top-dose-only effect; inactive = no such curve, though single readings can be large or run the other way.
readout label: activity change, negative = inhibition

[[record]]
molecule = "O=C1c2cccc3c(O)ccc(c23)C(=O)N1c1ccc(Cl)cc1"
observed_measurement = "inactive"

[[record]]
molecule = "CCCCCCc1cc2cc(-c3nnc(-c4ccc(C)cc4)o3)c(=O)oc2cc1O"
observed_measurement = "inactive"

[[record]]
molecule = "Cn1cc(/C=C2\\SC(=S)N(NC(=O)c3ccccc3Cl)C2=O)c2ccccc21"
observed_measurement = "inactive"

[[record]]
molecule = "Cc1cccc(Cn2c(COc3ccccc3)nc3ccccc32)c1"
observed_measurement = "inactive"

[[record]]
molecule = "CN1CC=C2C(C#N)=C(N)C(C#N)(C#N)C(c3ccsc3)C2C1 (configuration not stated)"
observed_measurement = "inactive"

[[record]]
molecule = "COc1cnc(N(C)C)nc1Sc1cccc(Cl)c1"
observed_measurement = "-24.7% [at 30.8 µM] (inactive)"

[[record]]
molecule = "Cc1nc(NC(=O)c2c(-c3ccccc3)c(-c3ccccc3)nn(C)c2=O)sc1C"
observed_measurement = "inactive"

[[record]]
molecule = "O=C(O)c1ccc(/C=N/NC(=O)c2ccc(CN3c4cccc5cccc(c45)S3(=O)=O)cc2)cc1"
observed_measurement = "3.17% [at 30.8 µM] (inactive)"

[[record]]
molecule = "O=C(CN1C(=O)c2ccccc2C1=O)Nc1cc([N+](=O)[O-])ccc1O"
observed_measurement = "inactive"

[[record]]
molecule = "Nc1ccc2nc3c(=O)n(C4CCCCC4)c(=O)[nH]c3nc2c1"
observed_measurement = "inactive"

[[record]]
molecule = "COc1ccc(/C=C2\\N=C(SC)N(c3ccccc3OC)C2=O)cc1"
observed_measurement = "-8.08% [at 30.8 µM] (inactive)"

[[record]]
molecule = "O=C(/C=C/c1ccccc1Cl)c1ccc(O)cc1"
observed_measurement = "8.95% [at 30.8 µM] (inactive)"

[[record]]
molecule = "CC(C)=CCC1=C(OCC(=O)O)C(=O)c2ccccc2C1=O"
observed_measurement = "inactive"

[[record]]
molecule = "Cn1c(COc2ccccc2C(C)(C)C)nc2ccccc21"
observed_measurement = "inactive"

[[record]]
molecule = "COc1ccccc1CNc1cc(C)nc2nc(-c3ccc(C)cc3)nn12"
observed_measurement = "inactive"

[[record]]
molecule = "S=c1[nH]nc(-c2cc(-c3ccccc3)n[nH]2)n1/N=C/c1cccc(Cl)c1"
observed_measurement = "inactive"

[[record]]
molecule = "Cc1ccccc1-c1ccc(CN2C(C(C)C)C(=O)N(Cc3cn(CCC4OCCO4)nn3)CCS2(=O)=O)cc1 (configuration not stated)"
observed_measurement = "inactive"

[[record]]
molecule = "COc1ccc(S(=O)(=O)N2CCCCC2)cc1C(C)C"
observed_measurement = "inactive"

[[record]]
molecule = "COc1ccc2nc3ccccc3[n+]([O-])c2c1"
observed_measurement = "32.7% [at 30.8 µM] (inactive)"

[[record]]
molecule = "COc1ccc(C(=O)Nc2cccc(/C=C(/CCC(=O)O)c3nc4ccccc4s3)c2)cc1"
observed_measurement = "inactive"

[[record]]
molecule = "O=C(Nc1ccccc1)C1=C(O)CC(c2ccc(Cl)cc2)N2CCN=C12 (configuration not stated)"
observed_measurement = "inactive"

[[record]]
molecule = "O=C1Cc2ccccc2C(=O)N1"
observed_measurement = "inactive"

